test: Pharmacokinetics after single iv or oral S2227 in dogs; type: in vivo, beagle dogs; details: male, beagle, dog, plasma, iv, 1 mg/kg
endpointName: half-life
Form field: result (number plus unit)

get_value(item= c1csc(CNc2cc[nH]n2)c1 [M179, N-(2-thienylmethyl)-1H-pyrazol-3-amine] , readout=half-life) returns 1.1 h

====

test: Pharmacokinetics after single iv or oral S2227 in rats; type: in vivo, Sprague-Dawley rats; settings: female, Sprague-Dawley, rat, plasma, po, 100 mg/kg
endpointName: Tmax (min)
One number for each entry, in min.

get_value(item= c1csc(CNc2cc[nH]n2)c1 [M179, N-(2-thienylmethyl)-1H-pyrazol-3-amine] , readout=Tmax) returns 49.8
